FYI, the data here is from the RNAGym collection of RNA variant scans (doi:10.1101/gad.245936.114).

B1: tRNA (parent)
chain: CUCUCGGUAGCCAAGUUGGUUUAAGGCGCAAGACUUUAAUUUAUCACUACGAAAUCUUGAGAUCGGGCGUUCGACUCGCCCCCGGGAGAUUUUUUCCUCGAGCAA

- Variants of: B1
- Test Description: nonsense suppression (GFP-seq) (ratio to wild type); higher = more function; SUP4oc tRNA, yeast GFP reporter sort-seq
Fewer inactive variants are shown than the library holds.
Record form. Attribute: nonsense suppression. Fill in for each entry.

Sample A60U U70C U76C — what was its nonsense suppression?
≤ 0.026

What do you get for A13G U35C U71C ?
≤ 0.026

Try this variant too: U35C A74G
≤ 0.026

Now this one: C3G U8G
≤ 0.026

Next record, please: C83U A87U
≤ 0.026

Same read-out for U21G G66C ?
≤ 0.026

Same lookup for G6C U20A , please.
≤ 0.026

And the next one, C34G U70G ?
≤ 0.026

Also need U20A U55C C82G , thanks.
≤ 0.026
